test: Quantitative High-Throughput drug screen in 47 multiple myeloma cell lines against the NCATS MIPE library collection: ARP1_JJKsccF8 cell viability assay (AID 1918928; also: nearly all actives have a fitted effect of over 40% in size); conditions: ARP1 myeloma cells viability, CellTiter-Glo ATP, 48 h; series mostly up to 45.8 µM
Inconclusive results are not listed. Active and inactive are the calls of the source. Calls follow the shape of the dose curve; as a rule, active = well fitted cell-killing curve with a large enough effect; inconclusive = small, poorly fitted or top-dose-only effect, or effect the other way; inactive = no such curve, though single readings can be large or run the other way.
Outcome codes: t for active, f for inactive

compound=CCCCCC[C@H]1C(=O)O[C@H](C)[C@H](NC(=O)c2cccc(NC=O)c2O)C(=O)O[C@@H](C)[C@@H]1OC(=O)CC(C)C assigned_category=t
compound=O=c1[nH]c2ccccc2n1C1CCN(Cc2ccc(-c3[nH]c4cc5ncnc5cc4nc3-c3ccccc3)cc2)CC1 assigned_category=t
compound=COC(=O)[C@@H](N)CCCN=C(N)N[N+](=O)[O-] assigned_category=f
compound=COc1cccc2c1[C@]13CCN(CC4CC4)[C@H](C2)[C@]1(OC)CCC(=O)C3 assigned_category=f
compound=CC(C)(C)c1cc(C=C(C#N)C#N)cc(Br)c1O assigned_category=t
compound=CC(C)(O)C=CC(=O)[C@](C)(O)[C@H]1[C@H](O)C[C@]2(C)[C@@H]3CC=C4[C@@H](C=C(O)C(=O)C4(C)C)[C@]3(C)C(=O)C[C@@]12C assigned_category=t
compound="CC(C)(C)[C@]1(O)C[C@@H]2OC(=O)C[C@@]23C(=O)O[C@@H]2OC(=O)[C@H](O)C213 (stereo not given in full)" assigned_category=f
compound=CC(C)(O)C(=O)Nc1ccc([N+](=O)[O-])c(C(F)(F)F)c1 assigned_category=f
compound="COCC1(CO)C(=O)C2CCN1CC2 (stereo not given)" assigned_category=t
compound=CCNC(=O)C[C@@H]1N=C(c2ccc(Cl)cc2)c2cc(OC)ccc2-n2c(C)nnc21 assigned_category=t
